The measured values listed here are drawn from patent US7160880B1.

- target.desc: benzodiazepine receptor (benzodiazepine site on the GABAA receptor complex)
- test.summary: Benzodiazepine radioligand (3H-flunitrazepam) binding assay
- measurement.conditions: read-out: Benzodiazepine receptor binding Ki; 3H-flunitrazepam, brain membrane homogenates, 90 minutes at 4° C.; tissue species of the tabulated values not stated
pKi: −log10 of the molar value.
value.type: pKi

# compound, target.desc, measured.value
records = [
    ("COC(=O)CC[C@@H]1N=C(c2ccccn2)c2cc(Cl)ccc2-n2cc(CO)nc21 [Example 1c-11]", "benzodiazepine receptor (benzodiazepine site on the GABAA receptor complex)", "6.00 to 7.00"),
    ("COC(=O)CC[C@@H]1N=C(c2ccccn2)c2cc(Br)ccc2-n2cc(C)nc21 [Example 1c-9]", "benzodiazepine receptor (benzodiazepine site on the GABAA receptor complex)", "7.30 to 9.00"),
    ("COC(=O)CC[C@@H]1N=C(c2ccccn2)c2cc(Cl)ccc2-n2c1nc(C)c2C [Example 1c-13]", "benzodiazepine receptor (benzodiazepine site on the GABAA receptor complex)", "6.00 to 7.00"),
    ("COC(=O)CC[C@@H]1N=C(c2ccccc2F)c2cc(Cl)ccc2-n2ccnc21 [Example 1c-1]", "benzodiazepine receptor (benzodiazepine site on the GABAA receptor complex)", "7.30 to 9.00"),
    ("COC(=O)CC[C@@H]1N=C(c2ccccc2F)c2cc(Cl)ccc2NC1=O [Example 1-1]", "benzodiazepine receptor (benzodiazepine site on the GABAA receptor complex)", "7.30 to 9.00"),
    ("COC(=O)CC[C@@H]1N=C(c2ccccn2)c2cc(Cl)ccc2-n2ccnc21 [Example 1c-6]", "benzodiazepine receptor (benzodiazepine site on the GABAA receptor complex)", "7.00 to 7.29"),
    ("O=C(CC[C@@H]1N=C(c2ccccc2F)c2cc(Cl)ccc2NC1=O)OCc1ccccc1 [Example 1-6]", "benzodiazepine receptor (benzodiazepine site on the GABAA receptor complex)", "6.00 to 7.00"),
    ("CCN(CC)CCN1C(=O)[C@H](CCC(=O)OC)N=C(c2ccccc2F)c2cc(Cl)ccc21 [Example 1-22]", "benzodiazepine receptor (benzodiazepine site on the GABAA receptor complex)", "6.00 to 7.00"),
    ("COC(=O)CC[C@H]1C(=O)Nc2ccc(Cl)cc2C(c2ccccc2F)=[N+]1[O-] [Example 1-31]", "benzodiazepine receptor (benzodiazepine site on the GABAA receptor complex)", "7.00 to 7.29"),
    ("CN1C(=O)[C@H](CC(=O)OCc2ccccc2)N=C(c2ccccc2F)c2cc(Cl)ccc21 [Example 1-24]", "benzodiazepine receptor (benzodiazepine site on the GABAA receptor complex)", "7.00 to 7.29"),
    ("COC(=O)CC[C@@H]1N=C(c2ccccc2F)c2cc(Cl)ccc2N=C1NCCc1ccncc1 [Example 1b-6]", "benzodiazepine receptor (benzodiazepine site on the GABAA receptor complex)", "6.00 to 7.00"),
    ("COC(=O)CC[C@@H]1N=C(c2ccccc2F)c2cc(Cl)ccc2N=C1NCc1ccncc1 [Example 1b-5]", "benzodiazepine receptor (benzodiazepine site on the GABAA receptor complex)", "< 6.00"),
    ("CCN(CC)CCN1C(=O)[C@H](CCC(=O)OCc2ccccc2)N=C(c2ccccc2F)c2cc(Cl)ccc21 [Example 1-25]", "benzodiazepine receptor (benzodiazepine site on the GABAA receptor complex)", "7.00 to 7.29"),
    ("O=C(CC[C@@H]1N=C(c2ccccn2)c2cc(Cl)ccc2NC1=O)OCc1ccccc1 [Example 1-9]", "benzodiazepine receptor (benzodiazepine site on the GABAA receptor complex)", "6.00 to 7.00"),
    ("COC(=O)CC[C@@H]1N=C(c2ccccc2F)c2cc(Cl)ccc2-n2c(C)nnc21 [Example 1c-15]", "benzodiazepine receptor (benzodiazepine site on the GABAA receptor complex)", "7.30 to 9.00"),
    ("COC(=O)CCC[C@@H]1N=C(c2ccccc2F)c2cc([N+](=O)[O-])ccc2NC1=O [Example 1-13]", "benzodiazepine receptor (benzodiazepine site on the GABAA receptor complex)", "7.30 to 9.00"),
]
